target: Human CD33 S128N (human, UniProt P20138 18-259); experiment: SPR captured Fab
Sequence (P20138 18-259 S128N): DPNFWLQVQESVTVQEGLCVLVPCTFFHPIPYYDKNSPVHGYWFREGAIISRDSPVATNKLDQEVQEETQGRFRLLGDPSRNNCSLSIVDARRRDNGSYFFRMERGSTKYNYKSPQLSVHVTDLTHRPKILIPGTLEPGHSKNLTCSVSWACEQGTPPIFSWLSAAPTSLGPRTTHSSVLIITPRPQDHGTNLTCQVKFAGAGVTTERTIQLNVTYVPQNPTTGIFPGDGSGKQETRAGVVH
Entries and their measured koff follow.
Answer with a number only, understood to be in s⁻¹.

Exam item: Returns the measured koff for the input binder. Input: ADI-10157 Fab (Fab, V domains shown, Fab fragment; also called Ab13) VH: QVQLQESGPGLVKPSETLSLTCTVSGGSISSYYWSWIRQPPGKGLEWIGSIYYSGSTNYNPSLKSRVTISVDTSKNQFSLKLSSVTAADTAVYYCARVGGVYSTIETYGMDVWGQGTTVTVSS VL: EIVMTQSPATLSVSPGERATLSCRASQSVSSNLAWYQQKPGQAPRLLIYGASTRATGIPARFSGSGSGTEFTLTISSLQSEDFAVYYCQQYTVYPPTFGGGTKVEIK
Marked response: 0.00924

Exam item: Param item: ADI-11812 Fab (Fab, V domains shown, Fab fragment; also called Ab24) VH: QVQLVQSGAEVKKPGASVKVSCKASGYTFEIYYMHWVRQAPGQGLEWMGIINPSSGSTVYAQKFQGRVTMTRDTSTSTVYMELSSLRSEDTAVYYCARGAGYDDEDMDVWGKGTTVTVSS VL: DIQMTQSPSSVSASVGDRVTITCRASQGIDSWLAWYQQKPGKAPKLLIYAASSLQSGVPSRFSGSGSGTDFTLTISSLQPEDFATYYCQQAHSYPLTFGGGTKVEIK
Marked response: 0.00112

Data provenance: patent US20250154261A1
